Data provenance is the supplement of paper PMC10307832.

Test system: EKVX
protocol-description: relative viability (nuclei count vs DMSO), 5 days (fraction); higher = more cells survive
assay-context: first compound 0.005 µM
Catalogue of relative viability values

compound	relative viability
COc1cc2nccc(Oc3ccc(NC(=O)Nc4cc(C)on4)c(Cl)c3)c2cc1OC [Tivozanib] + CS(=O)(=O)CCNCc1ccc(-c2ccc3ncnc(Nc4ccc(OCc5cccc(F)c5)c(Cl)c4)c3c2)o1 [Lapatinib] (partner 2 µM)	0.224
COc1cc2nccc(Oc3ccc(NC(=O)Nc4cc(C)on4)c(Cl)c3)c2cc1OC [Tivozanib] + O=C(CCCCCCC(=O)Nc1ccccc1)NO [Vorinostat] (partner 1 µM)	0.787
Nc1ccn([C@@H]2O[C@H](CO)[C@@H](O)[C@@H]2O)c(=O)n1 [Cytarabine] + Nc1ncn([C@H]2C[C@H](O)[C@@H](CO)O2)c(=O)n1 [Decitabine] (partner 2 µM)	0.485
Nc1ccn([C@@H]2O[C@H](CO)[C@@H](O)[C@@H]2O)c(=O)n1 [Cytarabine] + COc1cccc2cc(-c3nc([C@H]4CC[C@H](C(=O)O)CC4)n4ncnc(N)c34)[nH]c12 [OSI-027] (partner 0.5 µM)	0.573
COc1cc2nccc(Oc3ccc(NC(=O)Nc4cc(C)on4)c(Cl)c3)c2cc1OC [Tivozanib] + Cc1nc(NC(=O)N2CCC[C@H]2C(N)=O)sc1-c1ccnc(C(C)(C)C(F)(F)F)c1 [Alpelisib] (partner 2 µM)	0.903
